Data origin, for the record: ChEMBL document CHEMBL4613211

Target: UniProt Q9UNQ0
Sequence (Q9UNQ0 whole entry): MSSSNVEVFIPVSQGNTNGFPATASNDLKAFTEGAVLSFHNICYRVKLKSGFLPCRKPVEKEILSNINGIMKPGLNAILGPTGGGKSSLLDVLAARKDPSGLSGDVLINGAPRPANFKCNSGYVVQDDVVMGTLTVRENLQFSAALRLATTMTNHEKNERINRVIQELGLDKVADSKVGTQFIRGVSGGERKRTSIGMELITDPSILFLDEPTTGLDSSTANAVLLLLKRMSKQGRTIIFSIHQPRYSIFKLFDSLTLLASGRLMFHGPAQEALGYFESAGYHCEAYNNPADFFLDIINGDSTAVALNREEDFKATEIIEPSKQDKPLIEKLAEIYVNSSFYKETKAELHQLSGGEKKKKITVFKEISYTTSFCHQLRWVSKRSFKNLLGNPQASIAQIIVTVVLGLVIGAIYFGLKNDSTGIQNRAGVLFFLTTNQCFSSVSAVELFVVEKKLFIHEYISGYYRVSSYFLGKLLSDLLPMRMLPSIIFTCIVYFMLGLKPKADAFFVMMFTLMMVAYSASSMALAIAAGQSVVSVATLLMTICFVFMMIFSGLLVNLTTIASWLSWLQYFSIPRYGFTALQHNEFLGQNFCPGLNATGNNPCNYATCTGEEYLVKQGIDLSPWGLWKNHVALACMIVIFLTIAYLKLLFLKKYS
Experiment: Inhibition of ABCG2 (unknown origin)
metricName: pEC50
Note: pEC50 values are expressed as the negative base-10 logarithm of concentration in M.

Query: Test system UniProt Q9UNQ0; read-out pEC50; what value for `COc1cc(OC)c2c(c1)O/C(=C\c1ccc(OC)c(OC)c1)C2=O` ?
Result: 6.04
